Tested on: OVCAR-8 ovarian
Test: NCI tumour cell line growth inhibition, 48 h
READOUT NAME: TGI

Known results for molecules:
O=C(O)C(O)C(O)C(O)C(O)CO (stereo unspecified)    > 100 µM
Cc1nc2sccn2c1-c1nc2sccn2c1/C=C1/C(=O)Nc2ccccc21    > 100 µM
c1ccc(C(C(=Nc2ccc(Cc3ccc(N=C(C(c4ccccc4)c4ccccc4)N4CC4)cc3)cc2)N2CC2)c2ccccc2)cc1    22.5 µM

Q: Entry under review: C=CC1(C)CC(=O)C2(O)C(C)(O1)C(OC(C)=O)C(O)C1C(C)(C)CCC(O)C12C (stereo unspecified) . Reported TGI?
Result: > 150 µM

Q: Name the recorded TGI for COc1cc(O)c2c(=O)c(OC)c(-c3ccc(OC)c(O)c3)oc2c1 .
Result: > 100 µM

Q: Consider the molecule CN(C)CCNC(=O)Cc1ccccc1Nc1c(Cl)cccc1Cl and give its measured TGI.
Result: 37.1 µM

Q: Any idea what its TGI is? The molecule is CCCCOCCOC1=C(Cl)C(=O)c2c(O)ccc(O)c2C1=O
Result: 2.56 µM

Q: TGI for CC12c3c4ccc(C=O)c3Oc3ccc(C=O)c(c31)Oc1ccc(C=O)c(c12)O4 ?
Result: > 25 µM

Q: Looking for the measured TGI of C=C(CN(C)C)C(=O)c1ccc(C(=O)C(=C)CN(C)C)cc1 , can you help?
Result: > 100 µM

Q: // lookup TGI for O=C(NCCCl)O/N=C/c1cccnc1
Result: > 100 µM

Q: # TGI lookup, item COc1cccc2c1O/C(=C\c1ccc([N+](=O)[O-])s1)C2=O
Result: > 24.9 µM

Q: Requested field: TGI. Item: O=C(CCSC1=NCCCN1)c1ccc(F)cc1
Result: > 94.3 µM
